Entries and their measured GI50 follow.
System: SNB-19 CNS
Test: NCI tumour cell line growth inhibition, 48 h

Worked examples, 3 molecules total:
CCCCCCCCNc1cc2c3c(c1)CCCN3CCC2 = 3.29 µM
CCOC(=O)N1CCN(/[N+]([O-])=N/Oc2ccc([N+](=O)[O-])cc2[N+](=O)[O-])CC1 = 6.68 µM
COC12C=C/C(=C(/C(=O)OCc3cncnc3)C(=O)CCCCCCCCC3(OC)C=C/C(=C(/C(=O)OCc4cncnc4)C(=O)CCCCCCCC1)O3)O2 = 0.458 µM

Return GI50 (reported value) for this molecule: COC(=O)c1ccc(-c2nc3cc(Cl)c(Cl)cc3nc2C#N)cc1
> 100 µM

Return GI50 (reported value) for this molecule: O=c1[nH]c(=O)c2cn[nH]c2[nH]1
> 100 µM

Return GI50 (reported value) for this molecule: C[C@]12CC[C@@H]3c4ccc(OC(=O)N(CCCl)CCCl)cc4CC[C@H]3[C@@H]1CC[C@@H]2O
7.04 µM

Return GI50 (reported value) for this molecule: C/C=C(\C)C(=O)NC1=CC[C@@]2(C)C(=CCC3C2CC[C@@]2(C)C3CC[C@@H]2C(C)N(C)C)C1=O (some centres not stated)
15.9 µM

Return GI50 (reported value) for this molecule: O=C1C(Cl)=C(Nc2cccc(F)c2)C(=O)N1Cc1ccc(Cl)cc1
2.57 µM

Return GI50 (reported value) for this molecule: O=C(Oc1cccc(F)c1OC(=O)c1cccc(O)c1)c1cccc(O)c1
99.6 µM

Return GI50 (reported value) for this molecule: COc1cccc(N2CCN(CC(=O)N3CCN(c4nnc(-c5ccc(Cl)cc5)c(-c5ccc(Cl)cc5)n4)CC3)CC2)c1
37.9 µM

Return GI50 (reported value) for this molecule: CCOC(=O)/C(C=Nc1ccc(-c2nc3ccccc3[nH]2)cc1)=C(/C)O
32.7 µM

Return GI50 (reported value) for this molecule: O=C(c1ccccc1)c1ccccc1-c1ccccc1
5.45 µM

Data credit: PubChem BioAssay (NCI)
